molecular target: Potassium voltage-gated channel subfamily E member 1 (Homo sapiens) + Potassium voltage-gated channel subfamily KQT member 1 (Homo sapiens) (UniProt P15382+P51787); experiment: KCNQ1/KCNE1 complex potentiators, confirmation, selectivity assay for KCNQ1 potentiator project, thallium flux, CHO-K1 KCNQ1/E1 cells (AID 493186); details: FluxOR thallium flux, at 10 µM; stronger effect = higher value
Sequence (P51787 whole entry, looked up): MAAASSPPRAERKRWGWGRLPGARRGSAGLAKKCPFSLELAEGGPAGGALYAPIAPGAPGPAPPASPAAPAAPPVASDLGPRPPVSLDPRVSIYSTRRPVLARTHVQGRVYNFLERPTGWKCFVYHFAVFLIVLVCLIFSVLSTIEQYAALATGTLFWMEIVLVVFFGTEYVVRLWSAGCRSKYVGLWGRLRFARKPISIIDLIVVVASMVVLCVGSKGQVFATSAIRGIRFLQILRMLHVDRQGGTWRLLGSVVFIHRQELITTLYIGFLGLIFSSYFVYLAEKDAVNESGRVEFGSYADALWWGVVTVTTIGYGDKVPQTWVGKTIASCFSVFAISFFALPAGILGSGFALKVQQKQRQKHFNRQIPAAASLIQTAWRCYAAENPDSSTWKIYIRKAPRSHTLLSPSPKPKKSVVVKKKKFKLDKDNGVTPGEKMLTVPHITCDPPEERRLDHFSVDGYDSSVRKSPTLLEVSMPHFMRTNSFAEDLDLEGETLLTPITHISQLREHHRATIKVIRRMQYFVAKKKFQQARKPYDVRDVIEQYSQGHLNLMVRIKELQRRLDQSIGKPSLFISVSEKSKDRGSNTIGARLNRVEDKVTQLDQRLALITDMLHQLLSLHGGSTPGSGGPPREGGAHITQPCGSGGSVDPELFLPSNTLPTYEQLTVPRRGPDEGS
The source made the active and inactive calls.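 The calls were made as follows: active = mean duplicate activation above the buffer control mean plus 5 SD of those controls; inactive = the rest.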
MEASURE: activation

[
  {
    "MOLECULE": "Cc1ccc2cc(/C=N/NC(=O)CN3CCCCC3)c(Cl)nc2c1",
    "activation": "inactive"
  },
  {
    "MOLECULE": "COc1cc(OC)c(-n2cc(-c3ccc(Cl)cc3)[nH]c2=O)cc1Cl",
    "activation": "inactive"
  },
  {
    "MOLECULE": "Cn1ccnc1C(=O)c1cccc([N+](=O)[O-])c1",
    "activation": "inactive"
  },
  {
    "MOLECULE": "C/C(=N\\NC(=S)NCCc1ccccc1)c1cccs1",
    "activation": "inactive"
  }
]

Please examine the following record next.
Entry CCOC(=O)c1sc(NC(=S)NC(=O)c2ccccc2)nc1C ; activation = inactive

----------
molecular target: Short transient receptor potential channel 6 (Mus musculus); experiment: activation of mouse TRPC6 channel, confirmation, selectivity assay for TRPC4 activator project, cell-based, HEK293, membrane potential dye, duplicate (AID 434950); conditions: HEK293 TRPC6, membrane potential fluorescence, at 10 µM;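 as to activation: 0% = buffer only wells and 100% = acetylcholine maximal-effect wells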
Active and inactive are the calls of the source.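 How the source made its calls: active means membrane potential signal rise above negative control mean plus 3 SD in both duplicates, also active in the earlier TRPC4 screen; inactive means the rest.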
Answer with one of the outcomes 1 = active, 0 = inactive

Solved entries:
[
  {
    "COMPOUND": "Cc1cccc(C(=O)NNC(=S)NC(=O)c2ccccc2)c1",
    "CLASS_LABEL": 1
  },
  {
    "COMPOUND": "Cc1onc(-c2ccccc2)c1C(=O)NNC(=S)NC(=O)/C=C/c1ccccc1",
    "CLASS_LABEL": 1
  },
  {
    "COMPOUND": "CC1(C)CC(=O)c2cc(C(=O)NCc3ccco3)c(=O)n(-c3ccc(Cl)cc3)c2C1",
    "CLASS_LABEL": 1
  },
  {
    "COMPOUND": "Cc1ccc(-n2cc(CNCC3CC(=O)N(C4CC4)C3)c(-c3cccc(C)c3)n2)cc1 (configuration not stated)",
    "CLASS_LABEL": 1
  },
  {
    "COMPOUND": "COc1ccccc1CCC(=O)Nc1cc(S(=O)(=O)N2CCCCC2)ccc1N1CCN(C)CC1",
    "CLASS_LABEL": 0
  },
  {
    "COMPOUND": "Cc1ccc(NS(=O)(=O)c2ccc(C(=O)N3CC(C)CC(C)C3)cc2)cc1 (configuration not stated)",
    "CLASS_LABEL": 1
  },
  {
    "COMPOUND": "O=C(N/N=C/c1cc([N+](=O)[O-])cc(Br)c1O)C12CC3CCC(CC(C3)C1)C2",
    "CLASS_LABEL": 1
  },
  {
    "COMPOUND": "O=C(c1sc2ccccc2c1Cl)N(Cc1cccs1)C1CCS(=O)(=O)C1 (configuration not stated)",
    "CLASS_LABEL": 1
  },
  {
    "COMPOUND": "C#Cc1cccc(C(=O)NC2CCCN(C3Cc4ccccc4C3)C2)c1 (configuration not stated)",
    "CLASS_LABEL": 1
  },
  {
    "COMPOUND": "COc1ccc(C(CNC(=O)c2ccc(S(=O)(=O)N(C)C)cc2)N(C)C)cc1 (configuration not stated)",
    "CLASS_LABEL": 1
  }
]

Q: How did this test come out for CNC[C@H](CC1CCCCC1)NC[C@H](Cc1ccccc1)NCCC12CC3CC(CC(C3)C1)C2 ?
Result: 0

Q: How did this test come out for Cc1onc(-c2ccccc2)c1C(=O)NC(=S)NNC(=O)c1ccco1 ?
Result: 1

Q: How did this test come out for Cc1cc(OCCCn2ccnc2)cc(C)c1Cl ?
Result: 1

Q: How did this test come out for CN1C2C=C(N(CCc3c[nH]c4ccccc34)C(=O)c3ccc(Cl)cc3)CC1CC2 (configuration not stated) ?
Result: 0

Q: How did this test come out for OC1(c2ccccc2)CN(c2ccccc2)C2=[N+]1CCS2 (configuration not stated) ?
Result: 1

Q: How did this test come out for O=C(C1CCCN(Cc2ccncc2)C1)N1CCc2ccccc2C1 (configuration not stated) ?
Result: 1

Q: How did this test come out for COc1ccccc1C(=O)NNC(=S)NC(=O)c1cccs1 ?
Result: 0

Q: How did this test come out for Cc1ccc(C)c(OCCCCCn2ccnc2)c1 ?
Result: 1

Q: How did this test come out for O=C(NCCc1ccccn1)C(F)(F)C(F)(F)C(F)(F)C(F)(F)C(F)(F)C(F)F ?
Result: 0

Q: How did this test come out for c1ccc(Nc2nc(Nc3ccccc3)nc(N3CCNCC3)n2)cc1 ?
Result: 1

Q: How did this test come out for O=C(c1c(F)cccc1F)N1CCN(c2ncc(Br)cn2)CC1 ?
Result: 1

Q: How did this test come out for Cc1cccc(C(=O)NNC(=S)NC(=O)c2cccs2)c1 ?
Result: 0
